- System: Escherichia coli TOP10;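 further: peptides expressed intracellularly from a pBAD plasmid library in pooled LB shake-flask culture, induced with 0.3% L-arabinose, DNA abundance read by NGS, three biological replicates, DESeq2 with apeglm shrinkage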
- experimental-protocol: shrunken log2 fold change of peptide-encoding DNA abundance (4.5 h post-induction vs induction); higher = less antimicrobial activity (less host growth inhibition)
- test-parameters: time post-induction: 4.5 h; library: site-saturation at positions 5, 18, 19, 20
Where shrunken log2 fold change equals or exceeds 0.04, the correct label is MET; where it does not, the label is NOT MET.

- sequence-record: "RRIRVRPPRLPRPRPRPQRTPRP"
  label-value: "NOT MET"
- sequence-record: "RRIRIRPPRLPRPRPRPHLSPRP"
  label-value: "NOT MET"
- sequence-record: "RRIRLRPPRLPRPRPRPGKEPRP"
  label-value: "MET"
- sequence-record: "RRIRKRPPRLPRPRPRPHIFPRP"
  label-value: "NOT MET"
- sequence-record: "RRIRSRPPRLPRPRPRPMFIPRP"
  label-value: "NOT MET"
- sequence-record: "RRIRYRPPRLPRPRPRPPQFPRP"
  label-value: "NOT MET"
- sequence-record: "RRIRERPPRLPRPRPRPRKFPRP"
  label-value: "MET"
- sequence-record: "RRIRHRPPRLPRPRPRPPAMPRP"
  label-value: "NOT MET"
- sequence-record: "RRIRTRPPRLPRPRPRPHLIPRP"
  label-value: "MET"
- sequence-record: "RRIRWRPPRLPRPRPRPHCCPRP"
  label-value: "NOT MET"
- sequence-record: "RRIRMRPPRLPRPRPRPVRWPRP"
  label-value: "MET"
- sequence-record: "RRIRGRPPRLPRPRPRPMTGPRP"
  label-value: "MET"
- sequence-record: "RRIRCRPPRLPRPRPRPKYNPRP"
  label-value: "NOT MET"
- sequence-record: "RRIRQRPPRLPRPRPRPLYLPRP"
  label-value: "NOT MET"
- sequence-record: "RRIRRRPPRLPRPRPRPYGGPRP"
  label-value: "NOT MET"
